Cited source: the supplement of paper PMC7156485

test system: HCC1569; test: cell number relative to DMSO (% of DMSO); higher = more cells (less growth inhibition / toxicity); settings: concentration: 10 µM; 24 h
# binarize cell number: threshold 100 inclusive, high side Yes, low side No

>>> df
                                   compound  measurement_target  group
0  O=C(NCCCN1CCOCC1)c1cnn2c(-c3ccccc3)cc(-c3ccccc3)nc12             HCC1569     No
1  C=C1C(=CC=C2CCCC3(C)C2CCC3C(C)CCCC(C)(C)O)CC(O)CC1O (stereo not drawn) [1,25-Dihydroxyvitamin D3]             HCC1569    Yes
2  COC(=O)C=Cc1cc(O)ccc1O [2,5-Dihydroxycinnamic acid methyl ester]             HCC1569    Yes

====

system: TDF; test: cell number relative to DMSO (% of DMSO); higher = more cells (less growth inhibition / toxicity); settings: concentration: 10 µM; 24 h
measurement-type: cell number

>>> df
                                   molecule  value
0       Cc1ccc(NC2=CC(=O)c3sc(C)nc3C2=O)cc1   14.5
1           COc1cccc2oc(-c3ccccc3)cc(=O)c12   84.4
2  CC(=O)c1ccc(S(=O)(=O)NC(=O)NC2CCCCC2)cc1 [Acetohexamide]    107
3  O=c1c(O)c(-c2ccc(O)cc2O)oc2cc(O)cc(O)c12    109
4  C[N+](C)(C)CCCCCC[N+](C)(C)C.[Br-].[Br-] [Hexamethonium bromide]    103
5  CC1OC(Oc2c(-c3cc(O)c(O)c(O)c3)oc3cc(O)cc(O)c3c2=O)C(O)C(O)C1O (centres undefined)    101
6  CCC(=C(c1ccccc1)c1ccc(OCCN(C)C)cc1)c1ccccc1   99.1
7  O=C1OC(CN2CCOCC2)CN1/N=C/c1ccc([N+](=O)[O-])o1 (centres undefined)   96.5
8  Cc1oncc1C(=O)Nc1ccc(C(F)(F)F)cc1 [Leflunomide]    107

====

tested on: TDF; test: H1.0 immunofluorescence intensity relative to DMSO (% of DMSO); higher = stronger H1.0 induction, active = 120 or more; details: concentration: 10 µM; 24 h
Given measured H1.0 immunofluorescence intensity, output Condition met if it is greater than or equal to 100 and Condition not met if not.

>>> df
                                   molecule              group
0  CCOC(=O)C1=C(C)NC(C)=C(C(=O)OCC)C1 [Diludin]  Condition not met
1  CC(C)(C)NCC(O)c1ccc(O)c(CO)c1.CC(C)(C)NCC(O)c1ccc(O)c(CO)c1.O=S(=O)(O)O (stereo not drawn) [Albuterol hemisulfate]  Condition not met
2  CC1OC(OC2C(Oc3cc(O)c4c(c3)OC(c3ccc(O)cc3)CC4=O)OC(CO)C(O)C2O)C(O)C(O)C1O (stereo not drawn) [Naringin]  Condition not met
3  CN(C)CCC=C1c2ccccc2CCc2ccccc21.Cl [Amitriptyline hydrochloride]      Condition met
4  Br.CN(C)CCCC1(c2ccc(F)cc2)OCc2cc(C#N)ccc21 (stereo not drawn) [Citalopram hydrobromide]  Condition not met
5          NC(CCCP(=O)(O)O)C(=O)O (racemic)  Condition not met

====

test system: TDF; assay: H1.0 immunofluorescence intensity relative to DMSO (% of DMSO); higher = stronger H1.0 induction, active = 120 or more; details: concentration: 10 µM; 24 h
Reported H1.0 immunofluorescence intensity values are given for each entry in this list.

compound	H1.0 immunofluorescence intensity
CC1CCN=C(N)S1.Cl (racemic)	108
COc1cc2ncnc(Sc3nnc(C)s3)c2cc1OC	108
Cc1c2oc3c(C)ccc(C(=O)NC4C(=O)NC(C(C)C)C(=O)N5CCCC5C(=O)N(C)CC(=O)N(C)C(C(C)C)C(=O)OC4C)c3nc-2c(C(=O)NC2C(=O)NC(C(C)C)C(=O)N3CCCC3C(=O)N(C)CC(=O)N(C)C(C(C)C)C(=O)OC2C)c(N)c1=O (centres undefined)	179
Br.CN1C2CCC1CC(OC(=O)C(O)c1ccccc1)C2 (centres undefined)	97.2
CS(=O)(=O)c1ccc(C(O)C(COC(=O)CN)NC(=O)C(Cl)Cl)cc1 (centres undefined) [Thiamphenicol glycinate]	98.4
O=C(CCc1ccc(O)cc1)c1c(O)cc(O)cc1OC1OC(CO)C(O)C(O)C1O (centres undefined)	102
NS(=O)(=O)c1cc2c(cc1Cl)NCNS2(=O)=O [Hydrochlorothiazide]	90.9
CNC(CC(C)C)C(=O)NC1C(=O)NC(CC(N)=O)C(=O)NC2C(=O)NC3C(=O)NC(C(=O)NC(C(=O)O)c4cc(O)cc(O)c4-c4cc3ccc4O)C(O)c3ccc(c(Cl)c3)Oc3cc2cc(c3OC2OC(CO)C(O)C(O)C2OC2CC(C)(N)C(O)C(C)O2)Oc2ccc(cc2Cl)C1O.Cl (centres undefined) [Vancomycin hydrochloride from Streptomyces orientalis]	90.4
CN1C(C(=O)Nc2ccccn2)=C(O)c2sccc2S1(=O)=O	95
Oc1cc(O)cc(/C=C/c2ccc(Br)cc2)c1 [5-[(E)-2-(4-bromophenyl)ethenyl]-1,3-benzenediol]	95.4
CC(C)(C#N)c1cc(Cn2cncn2)cc(C(C)(C)C#N)c1	99.4
CS(=O)(=O)N1CCN(Cc2cc3nc(-c4cccc5[nH]ncc45)nc(N4CCOCC4)c3s2)CC1	85.3
O=c1[nH]c2cc(C(F)(F)F)ccc2n1-c1cc(C(F)(F)F)ccc1O	96.6
Cc1ncc([N+](=O)[O-])n1CCO	99.3

====

system: HCC1569; assay: H1.0 immunofluorescence intensity relative to DMSO (% of DMSO); higher = stronger H1.0 induction, active = 140 or more; details: concentration: 10 µM; 24 h
# H1.0 immunofluorescence intensity values compiled below
measurement-type: H1.0 immunofluorescence intensity

                                    compound  value
 0  NS(=O)(=O)c1cc(C(=O)O)c(NCc2ccco2)cc1Cl [Furosemide]    100
 1     Cc1[nH]ccc2c1[nH]c1cc(=O)ccc12.Cl.O.O   94.2
 2  O=C1CCc2ccc(OCCCCN3CCN(c4cccc(Cl)c4Cl)CC3)cc2N1    126
 3  COc1cc2ncnc(Nc3ccc(NC(=O)c4ccccc4)cc3)c2cc1OC    133
 4  Cl.NC(N)=NCCNS(=O)(=O)c1cccc2cnccc12 [HA-1004 hydrochloride]   88.4
 5  CCN(CC)CCOC(=O)c1ccc(N)cc1.Cl [Procaine hydrochloride]   97.8
 6  Cl.O=C(O)C1=CCCNC1 [Guvacine hydrochloride]   91.1
 7  c1cc(-c2sc(-c3ccncc3)c(-c3ccncc3)c2-c2ccncc2)ccn1 [4-[3,4,5-tri(4-pyridinyl)-2-thienyl]pyridine]   98.9
 8  CCCCCC(O)C=CC1C(O)CC(O)C1CC=CCCCC(=O)O (configuration not stated) [Dinoprost]    109
 9  CCCCCCCCC=CCCCCCCCCCC(=O)O [11(E)-Eicosenoic acid]    102
10                        CCCCCCCCCCCCC(=O)O    101
11  CC(N)(Cc1ccc(O)cc1)C(=O)O (racemic) [DL-alpha-Methyl-p-tyrosine]    106
12  CC(C)(C)c1ccc(C(O)CCCN2CCC(C(O)(c3ccccc3)c3ccccc3)CC2)cc1 (configuration not stated)    126
13  Nc1ncnc2n[nH]c(Nc3ccc(F)cc3)c12 [MNK1 Inhibitor]    140
14  CC(C)CN(CC(O)C(Cc1ccccc1)NC(=O)OC1CCOC1)S(=O)(=O)c1ccc(N)cc1 (configuration not stated)    108
15  COc1cc(C(=O)OC2CC(C)=CCCC(C)=CC(O)C2C(C)C)ccc1O (configuration not stated)   86.8
16  N#Cc1c(-c2ccccc2)cc(-c2cc(Br)ccc2O)[nH]c1=O    114

====

tested on: HCC1569; test: H1.0 immunofluorescence intensity relative to DMSO (% of DMSO); higher = stronger H1.0 induction, active = 140 or more; conditions: concentration: 10 µM; 24 h
Each entry below carries its recorded H1.0 immunofluorescence intensity.

compound	measurement-target	H1.0 immunofluorescence intensity
CC1C(=O)OC2C(O)C34C5CC(C(C)(C)C)C36C(OC(=O)C6O)OC4(C(=O)O5)C12O (configuration not stated) [Ginkgolide B]	HCC1569	82.4
CN1C(=O)CCC1c1cccnc1 (single isomer, unassigned; (-)) [(-)-Cotinine]	HCC1569	93
Cn1cc[nH]c1=S [Methimazole]	HCC1569	102
Nc1[nH]nc2nc3ccccc3nc12	HCC1569	115
COc1cc2ncnc(N3CCN(C(=O)Nc4ccc(Oc5ccccc5)cc4)CC3)c2cc1OC [PDGF Receptor Tyrosine Kinase Inhibitor III]	HCC1569	215
CCC(CO)Nc1nc(NCc2ccccc2)c2ncn(C(C)C)c2n1 (configuration not stated) [Roscovitine]	HCC1569	103
CCCCCCCCCCCCCCCC(=O)OC(CC(=O)O)C[N+](C)(C)C.[Cl-] (racemic) [Palmitoyl-DL-Carnitine chloride]	HCC1569	110
CCCCCC=CCC=CCCCCCCCCCCCC(=O)O [13(Z),16(Z)-Docosadienoic acid]	HCC1569	89.9
CC(CS)C(=O)N1CCCC1C(=O)O (configuration not stated) [Captopril]	HCC1569	96.7
Nc1c(C(=O)O)c2nc3c(C(=O)O)cccc3oc-2cc1=O [2-amino-3-oxo-3H-phenoxazine-1,9-dicarboxylic acid]	HCC1569	101
CCOc1ccc2c(c1)C(C)=CC(C)(C)N2 [Ethoxyquin]	HCC1569	98.9
Cc1[nH]c2ccccc2c1CCNC(=O)c1cccs1 [N-[2-(2-methyl-1H-indol-3-yl)ethyl]-2-thiophenecarboxamide]	HCC1569	92.8
Br.C=CCN1CCc2c(cc(O)c(O)c2Br)C(c2ccccc2)C1 (stereo not drawn) [R(+)-6-Bromo-APB hydrobromide]	HCC1569	99.2
CN(C)C1C(=O)C(C(N)=O)=C(O)C2(O)C(=O)C3=C(O)c4c(O)ccc(Cl)c4C(O)C3CC12.Cl (configuration not stated) [Demeclocycline hydrochloride]	HCC1569	104
COc1ccc(Cl)cc1NC(=O)Nc1cc(C)nc2ccccc12 [IGF-1R Inhibitor II]	HCC1569	106
CN1CCc2cc3c(cc2C(=O)Cc2ccc4c(c2C1)OCO4)OCO3 [Protopine]	HCC1569	92.4
CSc1nc(N)c2ncn(C3OC(COP(=O)([O-])OP(=O)([O-])OP(=O)([O-])[O-])C(O)C3O)c2n1.[Na+].[Na+].[Na+].[Na+] (configuration not stated) [2-Methylthioadenosine triphosphate tetrasodium]	HCC1569	95.7
CC(C)C(=O)Nc1ncc(-c2cc(C(F)F)nn2-c2c(Cl)cccc2Cl)s1	HCC1569	111
COc1ccnc(CS(=O)c2nc3cc(OC(F)F)ccc3[n-]2)c1OC.O.[Na+] (configuration not stated)	HCC1569	100
N#CC(=Cc1ccc(O)c(O)c1)C(=O)NCc1ccccc1 [Tyrphostin AG 490]	HCC1569	99.7
NCCC(O)(P(=O)([O-])O)P(=O)([O-])O.O.O.O.O.O.[Na+].[Na+] [Pamidronate.2Na.5H2O]	HCC1569	107
CC(CCc1ccc(O)cc1)NCCc1ccc(O)c(O)c1.Cl (configuration not stated) [Dobutamine hydrochloride]	HCC1569	91
COc1cc2ncnc(Nc3ccc(Cl)cc3F)c2cc1OC.Cl	HCC1569	141
Cc1nc(Nc2ncc(C(=O)Nc3c(C)cccc3Cl)s2)cc(N2CCN(CCO)CC2)n1 [Dasatinib]	HCC1569	171
CCCCCCCCCCCC=CCC=CCCCC(=O)O [Eicosa-5,8-dienoic acid (20:2 n-12)]	HCC1569	105
CNC1C(OC2C(OC3C(O)C(O)C(N=C(N)N)C(O)C3N=C(N)N)OC(C)C2(O)C=O)OC(CO)C(O)C1O (configuration not stated) [Streptomycin]	HCC1569	89
O=S(=O)(NCc1cccc2ccccc12)c1cc(Cl)c(Oc2cccc(N3CCNCC3)c2)s1	HCC1569	122
NC(=O)c1cnccn1 [Pyrazinecarboxamide]	HCC1569	110
C[N+](C)(C)CCCCCC[N+](C)(C)C.[Cl-].[Cl-] [Hexamethonium dichloride]	HCC1569	87.7
CC(C)COCC(CN(Cc1ccccc1)c1ccccc1)N1CCCC1.Cl (configuration not stated) [Bepridil.HCl]	HCC1569	99.1
NS(=O)(=O)c1cc2c(cc1Cl)NC(C(Cl)Cl)NS2(=O)=O (configuration not stated) [Trichloromethiazide]	HCC1569	110
O=C(O)CCCc1c[nH]c2ccccc12 [Indole-3-butyric acid]	HCC1569	86.6
